Consider the following compounds; for each one, report its Relative rate of hydrolysis.
Biological target: Fatty-acid amide hydrolase 1 (Rattus norvegicus) (UniProt P97612)
Sequence (P97612 whole entry): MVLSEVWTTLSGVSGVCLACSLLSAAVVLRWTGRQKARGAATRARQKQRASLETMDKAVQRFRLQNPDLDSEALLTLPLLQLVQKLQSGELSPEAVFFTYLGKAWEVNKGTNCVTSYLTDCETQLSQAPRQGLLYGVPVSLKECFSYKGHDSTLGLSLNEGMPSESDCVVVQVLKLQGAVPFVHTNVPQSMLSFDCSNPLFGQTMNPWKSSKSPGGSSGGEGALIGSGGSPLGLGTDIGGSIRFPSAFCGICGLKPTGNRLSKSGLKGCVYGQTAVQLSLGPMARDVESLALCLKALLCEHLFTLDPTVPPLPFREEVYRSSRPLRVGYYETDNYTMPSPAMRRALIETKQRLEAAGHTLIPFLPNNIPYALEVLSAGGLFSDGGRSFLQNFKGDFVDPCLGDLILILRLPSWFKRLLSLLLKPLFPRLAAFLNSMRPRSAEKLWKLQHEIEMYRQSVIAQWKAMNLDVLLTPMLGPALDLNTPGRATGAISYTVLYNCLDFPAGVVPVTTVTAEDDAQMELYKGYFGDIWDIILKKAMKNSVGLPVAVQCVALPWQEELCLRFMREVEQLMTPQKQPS
Experiment: Relative rate of fatty acid amide hydrolase hydrolysis of compound compared to that of oleamide.
// print number alone

Relative rate of hydrolysis for CCCCC/C=C/C/C=C/C/C=C/C/C=C/CCCC(N)=O ?
3.11

Consider next the compound CCCCCC/C=C/CCCCCCCC(N)=O in the same way.
0.79

Consider next the compound CCCCCCCC/C=C/CCCCCCOC(N)=O in the same way.
0.1

Consider next the compound CCCCCCCC/C=C/CCCCCCCCCCCCCC(N)=O in the same way.
0.82
